This collection of values is drawn from PubChem BioAssay AID1992.

# Measured on: Dual specificity protein phosphatase 3 (Homo sapiens) (UniProt P51452)
# Sequence (P51452 whole entry, looked up): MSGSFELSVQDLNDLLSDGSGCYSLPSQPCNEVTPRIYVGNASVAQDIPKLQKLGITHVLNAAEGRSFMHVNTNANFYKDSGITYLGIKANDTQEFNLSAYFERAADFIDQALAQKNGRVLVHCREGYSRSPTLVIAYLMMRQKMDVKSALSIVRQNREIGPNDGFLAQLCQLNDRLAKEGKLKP
# Assay summary: VHR1 phosphatase inhibitors, primary screen, biochemical, colorimetric, HTS (AID 1992)
# Stated conditions: recombinant VHR phosphatase, colorimetric substrate read-out; at 20 µM; stronger effect = higher value
About 350 (0.7%) of roughly 50,000 compounds were called active. The entries come from a sample that favours actives as a whole.
So I've got a bunch of compounds here, and I need their inhibition values.

# map each compound to its inhibition
1. COc1ccc(CN=CC2=C(O)CC(c3ccccc3)CC2=O)cc1 (stereo not drawn)
2. CC1=C(C(=O)Nc2ccc(C)cc2)C(c2ccc([N+](=O)[O-])cc2)NC(=O)N1 (stereo not drawn)
3. CC1=C(C(=O)OCc2ccccc2)C(c2ccc(C(F)(F)F)cc2)CC(=O)N1 (stereo not drawn)
4. COc1ccc(N2C(=O)c3cccc4cccc(c34)C2=O)cc1OC
5. COC(=O)Cn1cc(/C=C2\C(=O)NC(=O)N(c3cc(C)cc(C)c3)C2=O)c2ccccc21
6. CCn1c(=O)c(C(=O)Nc2ccccc2Br)c(O)c2ccccc21

1. 15.4% (inactive)
2. -6.8% (inactive)
3. 8.1% (inactive)
4. 7.9% (inactive)
5. -5.9% (inactive)
6. -20.9% (inactive)

# map each compound to its inhibition
1. CCCOc1ccc(C(=O)Nc2ccc(N(CC)CC)cc2)cc1
2. CCCOC(=O)c1ccc(NC(=O)c2ccc(OCc3ccccc3)cc2)cc1

-10.9% (inactive)
109% (active)

# map each compound to its inhibition
1. COc1ccc(N2C(=O)c3cccc4c(NC(CO)(CO)CO)ccc(c34)C2=O)cc1
2. O=C1C=CC2=C3Oc4c(ccc5cc(O)ccc45)C(c4ccccc4C(=O)O)C3C=CC2=C1 (stereo not drawn)

1. -0.7% (inactive)
2. 85.5% (active)

# map each compound to its inhibition
1. Cc1ccc(S(=O)(=O)N(Cc2ccccc2)c2ccccc2C(=O)NC2CCCC2)cc1
2. CC(C)(C)c1cc(Br)ccc1OCC(=O)Nc1ccccc1[N+](=O)[O-]
3. Cc1ccc(NC(=O)CC2SC(N)=NC2=O)c([N+](=O)[O-])c1 (stereo not drawn)
4. C/C(=C\C(=O)c1ccc(Br)cc1)Nc1ccccc1F
5. O=C1/C(=C/c2ccc(-c3ccc(Cl)cc3C(=O)O)o2)Sc2ccccc21
6. Cc1ccc(/C=N/c2nc3ccc(Br)cc3s2)c(O)c1

1: -20.6% (inactive); 2: -0.7% (inactive); 3: 24.8% (inactive); 4: 4.7% (inactive); 5: 15.2% (inactive); 6: -5% (inactive)

# map each compound to its inhibition
1. COC(=O)c1ccc(/C=N/Nc2nncc(-c3ccccc3)n2)cc1
2. Oc1ccc(Br)cc1/C=N/Nc1ccccn1
3. Cc1ccc(-c2ccc(C)cc2N)c(N)c1

1. -34% (inactive)
2. -11% (inactive)
3. -3% (inactive)

# map each compound to its inhibition
1. O=C(CSc1nc2ccccc2c(=O)n1-c1ccccc1)Nc1ccccc1
2. Cc1nc2cc(S(N)(=O)=O)ccc2n1-c1ccccc1
3. COc1ccc(/C=C2/SC(=S)N(Cc3ccccc3)C2=O)cc1OC
4. COC(=O)Nc1ccc(S(=O)(=O)N2CCN(c3ccccc3OC)CC2)cc1
5. CCOc1ccc(N2C(=O)NC(=O)/C(=C/c3ccc(-c4ccccc4[N+](=O)[O-])o3)C2=O)cc1

1: -19.9% (inactive); 2: 0.2% (inactive); 3: -6.8% (inactive); 4: -59.1% (inactive); 5: 19% (inactive)

# map each compound to its inhibition
1. CCN(CC)C(=O)CSc1nc(O)c(Cc2ccccc2)c(=O)n1-c1ccc(OC)cc1
2. COc1ccccc1-n1c(=S)[nH]c2ccccc2c1=O
3. Cc1cc2c(cc1C)-c1nc3ccccc3c(=O)n1C(C)(C)C2

1: 26.5% (inactive); 2: 5.2% (inactive); 3: -9.1% (inactive)

# map each compound to its inhibition
1. COc1ccc(C2C(C(=O)/C=C/c3ccccc3)=C(O)C(=O)N2CCCCCC(=O)O)c(OC)c1 (stereo not drawn)
2. COC(=O)c1cc(C(=O)Nc2ncccc2C)cc([N+](=O)[O-])c1
3. O=c1oc2c(-c3cc(Cl)ccc3Cl)cc(O)cc2s1

["29.2% (inactive)", "7.6% (inactive)", "14% (inactive)"]
